Test system: SN12C renal
Procedure Text: NCI tumour cell line growth inhibition, 48 h
molecules and their reported TGI

// worked examples, TGI included
• N#Cc1nc2ccccc2nc1N1CCN(c2ccc([N+](=O)[O-])cc2)CC1 = > 100 µM
• OCC1OC(c2cccc3cc(O)c(O)cc23)CC1O (stereo not drawn) = > 100 µM

# next molecule below
Report TGI, nothing else, for this molecule: CCCn1c2ccccc2c2ccc3c(c21)C(=O)C=CC3=O > 7.53 µM

###

System: NCI-H23 lung
Procedure Text: NCI tumour cell line growth inhibition, 48 h
molecules and their reported TGI

Give TGI; test system NCI-H23 lung; molecule C=C1C(=O)OC2CCN3CC=C(COC(=O)C(C)(O)C4(CO4)C1C)C23 (stereo not given) > 100 µM

Give TGI; test system NCI-H23 lung; molecule COc1ccc(C2C(Cl)C(=O)N2n2cnc3ccccc3c2=O)cc1 (stereo not given) > 100 µM

Give TGI; test system NCI-H23 lung; molecule CC(=O)O[C@H]1C[C@H]2[C@@H](OC(C)=O)/C=C3\C[C@](C)(C(=O)[C@H](O)C(=C1C)C2(C)C)[C@@H](O)C[C@@H]3OC(=O)[C@H](O)[C@H](c1ccccc1)N(C)C > 100 µM

Give TGI; test system NCI-H23 lung; molecule C=C(c1nc2ccc(Cl)cc2[nH]c1=O)C(O)c1ccc(C(O)C(=O)c2nc3ccc(Cl)cc3[nH]c2=O)cc1 (stereo not given) > 100 µM

Give TGI; test system NCI-H23 lung; molecule CC(=O)c1ccc(NCc2cc(O)ccc2O)cc1 48.9 µM

Give TGI; test system NCI-H23 lung; molecule CC(=O)Nc1ccc(N2C(=O)/C(=C\c3cccc(Oc4ccccc4)c3)S(=O)(=O)C2c2ccccc2)cc1 (stereo not given) > 100 µM

Give TGI; test system NCI-H23 lung; molecule CCN(CC)CCC(=O)/C=C/c1ccccc1 48.1 µM

Give TGI; test system NCI-H23 lung; molecule CCCCS(=O)CCC(N)P(=O)(O)O (stereo not given) > 100 µM

Give TGI; test system NCI-H23 lung; molecule COC(=O)CCC1=CCC2(SC)C(=O)Nc3cccc1c32 (stereo not given) > 100 µM

Give TGI; test system NCI-H23 lung; molecule NS(=O)(=O)c1ccc(N=Nc2nc3[nH]c(=O)[nH]c(=O)c3[nH]2)cc1 > 100 µM

// data source = PubChem BioAssay (NCI)
